# Assay method text: Absorption maximum and extinction measurement (absorbance, 1 cm path length, 10 mg/L solutions)
# Type: physicochemical
# Details: in xylene
Assay endpoint: maximum absorption band (λmax) wavelength (nm)

{"Compound": "CCCCc1ccc(Nc2c(C#N)c(C#N)c(Nc3ccc(CCCC)cc3)c3c2C(=O)c2c(Nc4ccc(CCCC)cc4)c(C#N)c(C#N)c(Nc4ccc(CCCC)cc4)c2C3=O)cc1", "Unit of measure": "nm", "Observed measurement": 900}
{"Compound": "CCCCc1ccc(Nc2ccc(Nc3ccc(CCCC)cc3)c3c2C(=O)c2c(Nc4ccc(CCCC)cc4)c(C#N)c(C#N)c(Nc4ccc(CCCC)cc4)c2C3=O)cc1", "Unit of measure": "nm", "Observed measurement": 835}
{"Compound": "CCCCNc1c(C#N)c(C#N)c(NCCCC)c2c1C(=O)c1ccccc1C2=O", "Unit of measure": "nm", "Observed measurement": 700}
{"Compound": "CCCCC(CC)CNc1ccc(NCC(CC)CCCC)c2c1C(=O)c1c(O)ccc(O)c1C2=O (stereo not shown)", "Unit of measure": "nm", "Observed measurement": 692}
